- Test Details: Drug level in 1 x 10^6 CFU Fonsecaea monophora CBS 269.37 infected OF1 mouse serum at 10 mg/kg, po qd administered 1 day after infection measured on day 6 after 4 hrs of last treatment
- Assay type: ADME, organism-based
- Set-up: dose 10 mg/kg, route oral
- Details: read-out: Drug uptake
Measurement Name: concentration at 4 h (ng/mL)

>>> print(df.to_string())
                                smiles_data  reading
0  CC[C@@H]([C@H](C)O)n1ncn(-c2ccc(N3CCN(c4ccc(OC[C@@H]5CO[C@@](Cn6cncn6)(c6ccc(F)cc6F)C5)cc4)CC3)cc2)c1=O     5170

###

- Test Details: Drug level in 1 x 10^6 CFU Fonsecaea monophora CBS 269.37 infected OF1 mouse serum at 40 mg/kg, po qd administered 1 day after infection measured on day 6 after 4 hrs of last treatment
- Type: ADME, organism-based
- Parameters: dose 40 mg/kg, route oral
- Details: read-out: Drug uptake
Measurement Name: concentration at 4 h

                                smiles_data      measurement_name     reading
0  CC[C@@H]([C@H](C)O)n1ncn(-c2ccc(N3CCN(c4ccc(OC[C@@H]5CO[C@@](Cn6cncn6)(c6ccc(F)cc6F)C5)cc4)CC3)cc2)c1=O  concentration at 4 h  9720 ng/mL

###

- Test Details: Drug level in 1 x 10^6 CFU Fonsecaea monophora CBS 269.37 infected OF1 mouse serum at 20 mg/kg, po qd administered 1 day after infection measured on day 6 after 4 hrs of last treatment
- Assay type: ADME, organism-based
- Set-up: dose 20 mg/kg, route oral
- Details: read-out: Drug uptake
Measurement Name: concentration at 4 h

In [3]: df
Out[3]:
                                   compound      measurement_name     reading
0  CC[C@@H]([C@H](C)O)n1ncn(-c2ccc(N3CCN(c4ccc(OC[C@@H]5CO[C@@](Cn6cncn6)(c6ccc(F)cc6F)C5)cc4)CC3)cc2)c1=O [POSACONAZOLE]  concentration at 4 h  6350 ng/mL

###

- Test Details: Drug level in 1 x 10^6 CFU Fonsecaea monophora CBS 269.37 infected OF1 mouse brain at 10 mg/kg, po qd administered 1 day after infection measured on day 6 after 4 hrs of last treatment
- Type: ADME, organism-based
- Design: dose 10 mg/kg, route oral
- Details: read-out: Drug uptake
Measurement Name: concentration at 4 h (ng/g)

                                smiles_data      measurement_name  reading
0  CC[C@@H]([C@H](C)O)n1ncn(-c2ccc(N3CCN(c4ccc(OC[C@@H]5CO[C@@](Cn6cncn6)(c6ccc(F)cc6F)C5)cc4)CC3)cc2)c1=O  concentration at 4 h     2020
